target: EHMT1 (Homo sapiens, UniProt Q9H9B1); experiment: EHMT1 enzyme assay on peptide substrate (EHMT1 PEP); assay type: biochemical; conditions: Table III; read-out: EHMT1 PEP (IC50 μM)
Sequence (Q9H9B1 whole entry, species assumed): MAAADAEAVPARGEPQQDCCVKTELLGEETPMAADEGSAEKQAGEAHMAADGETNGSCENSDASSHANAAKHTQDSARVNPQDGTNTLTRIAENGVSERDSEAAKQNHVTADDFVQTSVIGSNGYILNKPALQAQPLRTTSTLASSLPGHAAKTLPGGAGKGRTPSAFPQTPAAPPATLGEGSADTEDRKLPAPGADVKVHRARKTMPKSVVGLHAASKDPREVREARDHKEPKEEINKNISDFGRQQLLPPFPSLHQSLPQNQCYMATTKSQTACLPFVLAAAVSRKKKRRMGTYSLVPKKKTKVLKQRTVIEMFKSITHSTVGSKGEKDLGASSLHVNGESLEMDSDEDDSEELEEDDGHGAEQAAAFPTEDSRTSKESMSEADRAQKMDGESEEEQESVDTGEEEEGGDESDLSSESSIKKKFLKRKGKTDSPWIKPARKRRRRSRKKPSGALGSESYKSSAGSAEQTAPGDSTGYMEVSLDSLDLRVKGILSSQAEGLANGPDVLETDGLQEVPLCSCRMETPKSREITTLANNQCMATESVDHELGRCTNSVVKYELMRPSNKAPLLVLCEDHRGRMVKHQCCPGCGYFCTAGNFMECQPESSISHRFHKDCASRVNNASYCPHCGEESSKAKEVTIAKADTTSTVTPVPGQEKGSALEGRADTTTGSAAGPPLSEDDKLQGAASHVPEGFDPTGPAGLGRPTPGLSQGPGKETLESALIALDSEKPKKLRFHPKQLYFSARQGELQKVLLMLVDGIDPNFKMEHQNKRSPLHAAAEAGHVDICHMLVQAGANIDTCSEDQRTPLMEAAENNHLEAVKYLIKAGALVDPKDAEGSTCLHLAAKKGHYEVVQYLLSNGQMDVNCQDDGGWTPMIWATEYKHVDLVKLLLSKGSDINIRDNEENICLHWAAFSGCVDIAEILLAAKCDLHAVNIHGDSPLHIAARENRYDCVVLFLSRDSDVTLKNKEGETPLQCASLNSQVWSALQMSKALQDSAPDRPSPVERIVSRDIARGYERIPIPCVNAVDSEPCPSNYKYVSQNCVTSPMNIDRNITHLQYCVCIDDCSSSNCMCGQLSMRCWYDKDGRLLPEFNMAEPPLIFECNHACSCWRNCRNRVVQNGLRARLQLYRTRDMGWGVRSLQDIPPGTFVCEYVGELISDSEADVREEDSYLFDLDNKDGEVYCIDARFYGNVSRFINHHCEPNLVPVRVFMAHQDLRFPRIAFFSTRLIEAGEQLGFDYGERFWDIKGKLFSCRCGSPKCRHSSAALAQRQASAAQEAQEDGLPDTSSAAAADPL
VALUE_KIND: IC50

                                   compound   result
0  COc1ccc(Nc2nccc3[nH]ncc23)cc1OCCCN1CCCC1  > 10 µM

Check the records and state IC50 for CNc1ccnc(Nc2ccc(OC)c(OCCCN3CCCCC3)c2)n1
0.1 to 1 µM

Answer with the recorded IC50 of CNc1ccnc(Nc2cccc(COCCN3CCCC3)c2)n1 only.
1 to 10 µM

// Input: CNc1cc(C)nc(Nc2ccc(OC)c(O[C@H]3C[C@H](N(C)C)C3)c2)n1 (single isomer, unassigned) . Output its IC50 only.
1 to 10 µM

Fill in IC50 for record COc1ccc(NCCCN2CCCC2)cc1Nc1nccc(NCC2CCOCC2)n1
> 10 µM

Supply measured IC50 of COc1ccc(Nc2nccc(NCC3CCOCC3)n2)cc1OC1CC2(C1)CN(C)C2 in your reply.
> 10 µM

Provide one value: measured IC50 of CNc1ccnc(Nc2ccc(OC)c(OCCCN(C)C)c2)n1
< 0.1 µM

Tell me measured IC50 for CNc1cc(C)nc(Nc2ccc(OC)c(O[C@H]3C[C@H](CN(C)C)C3)c2)n1 please.
> 10 µM

State its IC50: COc1ccc(Nc2nccc(CNC3CCOCC3)n2)cc1OCCCNc1ccccc1
> 10 µM

Name the recorded IC50 of the compound listed here: CNc1ccnc(Nc2ccc(OC(F)(F)F)c(OCCCN3CCCC3)c2)n1
1 to 10 µM

Read the entry COc1cnc(Nc2ccnc3[nH]ccc23)cc1OCCCN1CCCC1 and write its reported IC50.
0.1 to 1 µM

Output measured IC50 for this item: CNc1ccnc(Nc2ccc(OC)c(OCC3CCN(C(C)C)C3)c2)n1 (stereo not drawn)
< 0.1 µM
